Attribution: paper PMC11014985

- Target of assay: recombinant human TCTP (Homo sapiens)
- Construct: recombinant; RED-NHS fluorescently labelled for MST
- Sequence (P13693 whole entry): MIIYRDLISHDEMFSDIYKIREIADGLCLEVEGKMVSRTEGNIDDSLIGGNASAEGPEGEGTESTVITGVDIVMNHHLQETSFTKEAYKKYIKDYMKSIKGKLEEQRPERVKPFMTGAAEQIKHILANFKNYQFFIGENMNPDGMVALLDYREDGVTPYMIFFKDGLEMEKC
- Assay comment: microscale thermophoresis
Experimental endpoint: pKd
One number for each entry, as −log10 of the molar value.

Molecule | Target of assay | pKd
CSc1ccc2c(c1)N(CCC1CCCCN1C)c1ccccc1S2 (centres unmarked) | recombinant human TCTP (Homo sapiens) | 5.27

Next up:
Q: Report pKd from recombinant human TCTP (Homo sapiens) testing of `CN[C@H]1CC[C@@H](c2ccc(Cl)c(Cl)c2)c2ccccc21`
Result: 4.81
